Sourced from patent US20230279123A1

STUDY_SYSTEM: IL-4Rα (on TF-1 cells) (UniProt P24394 26-825, limits assumed)
METHOD: cell-based or functional assay
READOUT_KIND: EC50 of neutralizing IL-4-induced TF-1 proliferation (µM)

Example results:
[[record]]
binder = "humanized anti-IL-4Rα single domain antibody 4E9-V5 (VHH) VHH: QVQLVESGGGLVQPGGSLRLSCAASGDFYCLGWFRQAPGQGLEAVAAIRSGGRSTYYADSVKGRFTISRDNSKNTLYLQMNSLRAEDTAVYYCAVGVDANCRNYWGQGTLVTVSS"
recorded_result = 0.000746

[[record]]
binder = "humanized anti-IL-4Rα single domain antibody 4E9-V13 (VHH) VHH: QVQLVESGGGLVQPGGSLRLSCAASGDFYCMAWFRQAPGKEREAVATIRSGGRSTYYADSVKGRFTISRDNSKNTVYLQMNSLKAEDTAVYYCAVGVDGNCRNYWGQGTLVTVSS"
recorded_result = 0.00452

[[record]]
binder = "humanized anti-IL-4Rα single domain antibody 4E9-V14 (VHH) VHH: QVQLVESGGGLVQPGGSLRLSCAASGDFYCMAWFRQAPGKEREAVATIRSGGRSTYYADSVKGRFTISRDNSKNTLYLQMNSLRAEDTAVYYCAVGVDGNCRNYWGQGTLVTVSS"
recorded_result = 18600

[[record]]
binder = "humanized anti-IL-4Rα single domain antibody 4E9-V6 (VHH) VHH: QVQLVESGGGLVQPGGSLRLSCAASGDFYCMAWFRQAPGKEREAVATIRSGGRSTYYADSVKGRFTISRDNSKNTLYLQMNSLKAEDTAVYYCAVGVDGNCRNYWGQGTLVTVSS"
recorded_result = 0.000707


A: humanized anti-IL-4Rα single domain antibody 4E9-V10 (VHH) VHH: QVQLVESGGGLVQPGGSLRLSCAASGDFYCMAWFRQAPGKEREAVAAIRSGGRSTYYADSVKGRFTISRDNSKNTLYLQMNSLKAEDTAVYYCAVGVDGNCRNYWGQGTLVTVSS
B: humanized anti-IL-4Rα single domain antibody 4E9-V9 (VHH) VHH: QVQLVESGGGLVQPGGSLRLSCAASGDFYCMAWFRQAPGKERERVATIRSGGRSTYYADSVKGRFTISRDNSKNTLYLQMNSLKAEDTAVYYCAVGVDGNCRNYWGQGTLVTVSS
C: humanized anti-IL-4Rα single domain antibody 4E9-V3 (VHH) VHH: QVQLVESGGGLVQPGGSLRLSCAASGDFYCLGWFRQAPGQEREAVAAIRSGGRSTYYADSVKGRFTISRDNSKNTLYLQMNSLKAEDTAVYYCAVGVDGNCRNYWGQGTLVTVSS
D: humanized anti-IL-4Rα single domain antibody 4E9-V8 (VHH) VHH: QVQLVESGGGLVQPGGSLRLSCAASGDFYCMAWFRQAPGKERERVAKIRSGGRSTYLADSVKGRFTISRDNSKNTLYLQMNSLKAEDTAVYYCAVGVDGNCRNYWGQGTLVTVSS
Query: Hey, quick one: sort these by EC50 of neutralizing IL-4-induced TF-1 proliferation, largest value first please. Please list the labels according to the requested order.
Response: C, D, B, A
(C: 0.0138 µM, D: 0.00277 µM, B: 0.000752 µM, A: 0.000271 µM)
